- System: wild type bacterial ribosomes
- experiment_description: in-vitro translation assay, bacterial ribosomes
- Assay type: biochemical
- details: bacterial ribosome; Table 3 (Example 1); read-out: IC50 Bac
quantity_measured: pIC50
Please keep in mind that pIC50 is minus log10 of the molar concentration; only the number is needed.

Previously resolved entries follow.
NC[C@H]1O[C@H](O[C@H]2[C@H](O[C@@H]3O[C@H](CN)[C@@H](O)[C@H]3O)[C@@H](O)[C@H](N)C[C@@H]2N)[C@H](N)[C@@H](O)[C@@H]1O = 7.05
NC[C@@H]1O[C@H](O[C@H]2[C@@H](O)[C@H](O[C@@H]3[C@@H](O)[C@H](N)C[C@H](N)[C@H]3O[C@H]3O[C@H](CO)[C@@H](O)[C@H](O)[C@H]3N)O[C@@H]2CO)[C@H](N)[C@@H](O)[C@@H]1O [paromomycin, reference compound] = 7.40

For the compound NCC1OC(OC2C(N)CC(N)C(O)C2OC2OC(CNC=O)C(O)C2O)C(N)C(O)C1O (stereo not drawn) , what pIC50 is on record?
6.62

###

pIC50 reference
- Tested on: rabbit reticulocyte ribosomes
- experiment_description: in-vitro translation assay, rabbit reticulocyte ribosomes
- Assay type: biochemical
- details: mammalian cytosolic ribosomes (rabbit)
Expect pIC50 as a plain number equal to -log10 of the molar concentration.

Which pIC50 is listed for NCC1OC(OC2C(CNC=O)OC(OC3C(O)C(N)CC(N)C3OC3OC(CO)C(O)C(O)C3N)C2O)C(N)C(O)C1O (stereo not drawn) ?
4.54

Could you do the same for NC[C@@H]1O[C@H](O[C@H]2[C@@H](O)[C@H](O[C@@H]3[C@@H](O)[C@H](N)C[C@H](N)[C@H]3O[C@H]3O[C@H](CN)[C@@H](O)[C@H](O)[C@H]3N)O[C@@H]2CO)[C@H](N)[C@@H](O)[C@@H]1O [neomycin, Neomycin B, reference compound] , please?
4.31

Would you kindly repeat that for CCCC(O)C1OC(OC2C(N)CC(N)C(O)C2OC2OC(CO)C(OC3OC(CN)C(O)C(O)C3N)C2O)C(N)C(O)C1O (stereo not drawn) [DC142] ?
4.92

###

Below is a list of entries, each paired with its recorded MIC50 value.
- Test system: E coli carrying specific resistance determinants
- experiment_description: MIC by broth microdilution, E coli carrying specific resistance determinants
- Format: cell-based
- details: Escherichia coli, read-out: MIC50 E coli pH423 APH(3)-VI, pH423 APH(3)-VI; Table 2B (Example 2)
Report only the number, with the unit µg/mL understood.

CC1CC(O)C2O[C@H](O[C@@H]3C(N)C[C@@H](N)C(O)[C@H]3O[C@@H]3O[C@H](CO)[C@H](O[C@H]4O[C@@H](CN)[C@@H](O)C(O)C4N)C3O)C(N)[C@@H](O)[C@@H]2O1 (stereo partly shown) = 2

What does the data say about its MIC50? Entry: CC(C)(O)C1O[C@H](O[C@@H]2C(N)C[C@@H](N)C(O)[C@H]2O[C@@H]2O[C@H](CO)[C@H](O[C@H]3O[C@@H](CN)[C@@H](O)C(O)C3N)C2O)C(N)[C@@H](O)[C@@H]1O (stereo partly shown)
8

###

The reader will find reported MIC AG032 P. aer. APH(3′)-II values listed item by item below.
- Tested on: P aeruginosa
- experiment_description: MIC by broth microdilution, P aeruginosa isolates
- Format: cell-based, Pseudomonas aeruginosa
- details: clinical isolate AG032, APH(3′)-II

NC[C@@H]1O[C@H](O[C@H]2[C@@H](O)[C@H](O[C@@H]3[C@@H](O)[C@H](N)C[C@H](N)[C@H]3O[C@H]3O[C@H](CO)[C@@H](O)C[C@H]3N)O[C@@H]2CO)[C@H](N)[C@@H](O)[C@@H]1O [Lividomycin B, lividomycin B, reference compound] = >128 µg/mL
CC(C)(O)[C@H]1O[C@H](O[C@H]2[C@H](O[C@@H]3O[C@H](CO)[C@@H](O[C@H]4O[C@@H](CN)[C@@H](O)[C@H](O)[C@H]4N)[C@H]3O)[C@@H](O)[C@H](N)C[C@@H]2N)[C@H](N)[C@@H](O)[C@@H]1O = >128 µg/mL
NC[C@@H]1O[C@H](O[C@H]2[C@@H](O)[C@H](O[C@@H]3[C@@H](O)[C@H](N)C[C@H](N)[C@H]3O[C@H]3O[C@H](CN)[C@@H](O)[C@H](O)[C@H]3O)O[C@@H]2CO)[C@H](N)[C@@H](O)[C@@H]1O = 128 µg/mL
NCC1OC(OC2C(CNC=O)OC(OC3C(O)C(N)CC(N)C3OC3OC(CO)C(O)CC3N)C2O)C(N)C(O)C1O (stereo not shown) = 32 µg/mL
CC(O)C1OC(OC2C(N)CC(N)C(O)C2OC2OC(CO)C(OC3OC(CN)C(O)C(O)C3N)C2O)C(N)C(O)C1O (stereo not shown) = >32 µg/mL
CC1CC(N)C2OC(OC3C(N)CC(N)C(O)C3OC3OC(CO)C(OC4OC(CN)C(O)C(O)C4N)C3O)C(N)C(O)C2O1 (stereo not shown) = >128 µg/mL
CC(N)C1OC(OC2C(N)CC(N)C(O)C2OC2OC(CO)C(OC3OC(CN)C(O)C(O)C3N)C2O)C(N)C(O)C1O (stereo not shown) = 128 µg/mL
CC(=O)N[C@H]1[C@@H](O[C@H]2[C@H](O[C@@H]3O[C@H](CO)[C@@H](O[C@H]4O[C@@H](CN)[C@@H](O)[C@H](O)[C@H]4N)[C@H]3O)[C@@H](O)[C@H](N)C[C@@H]2N)O[C@H](CN)[C@@H](O)[C@@H]1O = >32 µg/mL
NCC1OC(OC2C(CNC=O)OC(OC3C(O)C(N)CC(N)C3OC3OC(CO)C(O)C(O)C3N)C2O)C(N)C(O)C1O (stereo not shown) = 128 µg/mL
NC[C@H]1O[C@H](O[C@H]2[C@H](O[C@@H]3O[C@H](CO)[C@@H](O)[C@H]3O)[C@@H](O)[C@H](N)C[C@@H]2N)[C@H](N)C[C@@H]1O = 4 µg/mL

// switching to the query compound
I'd like to know its MIC AG032 P. aer. APH(3′)-II. The compound in question is NCC1OC(OC2C(CNC(N)=O)OC(OC3C(O)C(N)CC(N)C3OC3OC(CO)C(O)C(O)C3N)C2O)C(N)C(O)C1O (stereo not shown)
>128 µg/mL

###

- System: E coli carrying specific resistance determinants
- experiment_description: MIC by broth microdilution, E coli carrying specific resistance determinants
- Format: cell-based
- details: pH432 ANT(4′); Table 2B (Example 2)
quantity_measured: MIC50 E coli pH432 ANT(4′) (μg/ml)
Write it as a number; the unit μg/ml goes unstated.

CCCC(O)C1OC(OC2C(N)CC(N)C(O)C2OC2OC(CO)C(OC3OC(CN)C(O)C(O)C3N)C2O)C(N)C(O)C1O (stereo not drawn) [Compound 143] = 4
C[C@@H](O)[C@H]1O[C@H](O[C@H]2[C@H](O[C@@H]3O[C@H](CO)[C@@H](O[C@H]4O[C@@H](CN)[C@@H](O)[C@H](O)[C@H]4N)[C@H]3O)[C@@H](O)[C@H](N)C[C@@H]2N)[C@H](N)[C@@H](O)[C@@H]1O [Compound 155, 6′(R)-6′-C-Methylparomomycin] = 2
CC(O)C1OC(OC2C(N)CC(N)C(O)C2OC2OC(CO)C(OC3OC(CN)C(O)C(O)C3N)C2O)C(N)C(O)C1O (stereo not drawn) = 1
NC[C@@H]1O[C@H](O[C@H]2[C@@H](O)[C@H](O[C@@H]3[C@@H](O)[C@H](N)C[C@H](N)[C@H]3O[C@H]3O[C@H](CN)[C@@H](O)[C@H](O)[C@H]3N)O[C@@H]2CO)[C@H](N)[C@@H](O)[C@@H]1O [neomycin, Neomycin B, reference compound] = 1
CCCC(O)C1OC(OC2C(N)CC(N)C(O)C2OC2OC(CO)C(OC3OC(CN)C(O)C(O)C3N)C2O)C(N)C(O)C1O (stereo not drawn) [Compound 142] = 1

Read the next record carefully.
Request: MIC50 E coli pH432 ANT(4′), test system E coli carrying specific resistance determinants, entry CC(N)C1OC(OC2C(N)CC(N)C(O)C2OC2OC(CO)C(OC3OC(CN)C(O)C(O)C3N)C2O)C(N)C(O)C1O (stereo not drawn)
0.5

###

- Test system: MRSA
- experiment_description: MIC by broth microdilution, MRSA isolates
- Format: cell-based
- details: clinical isolate AG038
quantity_measured: MIC AG038 MRSA (µg/mL)
// units = µg/mL; emit number, no label

What value of MIC AG038 MRSA on MRSA does NC[C@@H]1O[C@H](O[C@H]2[C@@H](O)[C@H](O[C@@H]3[C@@H](O)[C@H](N)C[C@H](N)[C@H]3O[C@H]3O[C@H](CO)[C@@H](O)C[C@H]3N)O[C@@H]2CO)[C@H](N)[C@@H](O)[C@@H]1O [Lividomycin B, lividomycin B, reference compound] have?
4

Let us now turn to `NC[C@H]1O[C@H](O[C@H]2[C@H](O[C@@H]3O[C@H](CNC=O)[C@@H](O)[C@H]3O)[C@@H](O)[C@H](N)C[C@@H]2N)[C@H](N)[C@@H](O)[C@@H]1O`
64

Again, but for CCNC1C(OC2C(N)CC(N)C(O)C2OC2OC(CO)C(OC3OC(CN)C(O)C(O)C3N)C2O)OC(CN)C(O)C1O (centres unmarked)
0.5

Now try CC(N)C1OC(OC2C(N)CC(N)C(O)C2OC2OC(CO)C(OC3OC(CN)C(O)C(O)C3N)C2O)C(N)C(O)C1O (centres unmarked) .
2
